ASSAY PROCEDURE: Oral gavage pharmacokinetics, jugular and portal vein sampling, first pass metabolism
Assay type: in vivo, rat
STUDY CONDITIONS: male, Sprague Dawley, rat, plasma (jugular vein sample); rats N=4; Compound 1 75 mg/kg oral gavage; jugular sample; 0.33 hrs
Procedure: Two separate IV studies were carried out using two separate lots of animals. IV-A was run on the same lot of animals as the oral gavage study and IV-B was run on the same lot of animals as the intraduodenal and intra-colonic studies. For the oral gavage dosing, Compound 1 was prepared in neat PEG-400. […] The two glucuronide conjugates were prepared and purified to permit accurate quantification of the levels of intact parent Compound 1 versus Cpd 1-GluA and Cpd 1-GluB. […]

| COMPOUND | concentration at 0.33 h / ng/mL |
| --- | --- |
| COc1cc2c(cc1OC)-c1n[nH]c(Nc3cccc(F)c3)c1C2 | 1770 |
| COc1cc2c(cc1OC)-c1nn(C3OC(C(=O)O)C(O)C(O)C3O)c(Nc3cccc(F)c3)c1C2 (stereo in doubt) | 233 |
| COc1cc2c(cc1OC)-c1n[nH]c(N(c3cccc(F)c3)[C@H]3O[C@@H](C(=O)O)[C@H](O)[C@@H](O)[C@@H]3O)c1C2 | 16100 |
